# credit: the supplement of paper PMC10065799

Test system: AncSZ;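 further: 11-residue human phosphosite peptides and single-mutation variants displayed on the E. coli surface, counted by deep sequencing, each peptide's frequency after selection divided by its frequency in the unselected input library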;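 further: frequency after pTyr selection over input frequency; kinase dosed for 20-30% of maximal phosphorylation in three min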
experimental.details: phosphorylation enrichment, bacterial display (enrichment ratio); higher = better substrate or ligand; peptides without Tyr show the background
endpoint: phosphorylation enrichment
Reply: number alone, nothing else.

**Query** What measured phosphorylation enrichment goes with IGKDLYANNVL [ACTA2_Y296_R292G] ?
**Result** 1.2

**Query** What measured phosphorylation enrichment goes with FYVVRYCWLRR [MPZ_Y181] ?
**Result** 0.869

**Query** What measured phosphorylation enrichment goes with FADIAYNYHHG [PAH_Y166_R169H] ?
**Result** 0.643

**Query** What measured phosphorylation enrichment goes with DGMADYSDPSF [CDC5L_Y459_YF] ?
**Result** 1.92

**Query** What measured phosphorylation enrichment goes with SVVVPYEPPEI [TP53_Y220_V225I] ?
**Result** 1.15

**Query** What measured phosphorylation enrichment goes with PIFLFYLMDLS [ITGB2_Y131_D128Y_YF] ?
**Result** 2.78

**Query** What measured phosphorylation enrichment goes with MICSAYALGGL [CPS1_Y590_R587C] ?
**Result** 0.961
